Reference source: BigSolDB 2.1

# settings: in water, 308.15 K
metric: solubility (mole fraction)

molecule	metric	observed measurement
O=c1c(O)c(-c2ccc(O)c(O)c2)oc2cc(O)cc(O)c12	solubility (mole fraction)	1.61e-08
O=C1C[C@@H](c2ccc(O)cc2)Oc2cc(O)cc(O)c21	solubility (mole fraction)	4.96e-07
O=C1c2c(O)cc(O)cc2OC(c2ccc(O)c(O)c2)C1O (stereo not given)	solubility (mole fraction)	4.5e-05
O=c1c(O)c(-c2ccc(O)cc2)oc2cc(O)cc(O)c12	solubility (mole fraction)	2.31e-09
O=c1cc(-c2ccc(O)cc2)oc2cc(O)cc(O)c12	solubility (mole fraction)	2.96e-08
COc1ccc(C2CC(=O)c3c(O)cc(O)cc3O2)cc1O (stereo not given)	solubility (mole fraction)	2.52e-07
O=c1cc(-c2ccccc2)oc2cc(O)cc(O)c12	solubility (mole fraction)	3.63e-09
O=c1c(O)c(-c2ccc(O)cc2O)oc2cc(O)cc(O)c12	solubility (mole fraction)	3.25e-08
COc1ccc(-c2coc3cc(O)ccc3c2=O)cc1	solubility (mole fraction)	6.78e-09
O=c1cc(-c2ccc(O)c(O)c2)oc2cc(O)cc(O)c12	solubility (mole fraction)	1.2e-07
